Hey, just so you know, these numbers are from ChEMBL document CHEMBL1131518.

# experimental.system: Methionine--tRNA ligase (Escherichia coli K-12) (UniProt P00959)
# Sequence (P00959 2-677 limits assumed): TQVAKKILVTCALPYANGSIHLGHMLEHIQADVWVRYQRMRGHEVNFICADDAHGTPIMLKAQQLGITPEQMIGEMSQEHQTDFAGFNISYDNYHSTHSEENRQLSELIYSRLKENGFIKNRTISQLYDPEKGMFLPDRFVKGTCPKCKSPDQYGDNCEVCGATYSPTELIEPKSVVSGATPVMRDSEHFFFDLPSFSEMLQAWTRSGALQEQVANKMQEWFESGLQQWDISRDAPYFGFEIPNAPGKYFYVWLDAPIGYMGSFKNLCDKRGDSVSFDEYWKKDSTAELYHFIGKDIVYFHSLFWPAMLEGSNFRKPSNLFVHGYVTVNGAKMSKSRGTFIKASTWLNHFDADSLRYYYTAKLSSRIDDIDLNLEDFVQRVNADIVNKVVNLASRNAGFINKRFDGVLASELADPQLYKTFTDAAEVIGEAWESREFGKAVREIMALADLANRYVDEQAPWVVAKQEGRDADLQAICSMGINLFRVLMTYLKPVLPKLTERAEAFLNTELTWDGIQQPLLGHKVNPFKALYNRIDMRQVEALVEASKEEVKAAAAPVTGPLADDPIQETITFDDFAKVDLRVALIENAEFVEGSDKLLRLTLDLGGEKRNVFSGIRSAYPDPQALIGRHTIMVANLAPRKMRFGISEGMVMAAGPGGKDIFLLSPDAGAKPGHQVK
# assay.notes: Ability to inhibit Escherichia coli methionyl-tRNA synthetase was determined at a concentration of 270 uM
measured.parameter: inhibition (%)

INSERT INTO results (compound, units_text, numeric_result) VALUES
  ('CSCCC(N)C(=O)Nc1ccc2ccccc2c1 (stereo not drawn)', '%', 22.3),
  ('CSCC[C@H](N)C(=O)C(C)C', '%', 0);

[A] C[S+]([O-])CC[C@H](N)C(=O)NO (stereo partly drawn)
[B] COC(=O)CC(=O)CCSC
// pick larger inhibition from pair: A vs B The response must carry the label of the picked entry.
A

###

# experimental.system: UniProt:P00959
# assay.notes: Ability to inhibit Escherichia coli methionyl-tRNA synthetase was determined at a concentration of 270 uM
measured.parameter: inhibition (%)

Recorded results for 3 compounds are shown here.
INSERT INTO assay_data (compound_smiles, measured_parameter, numeric_result) VALUES
  ('CSCC[C@H](N)C(=O)NOC(C)(C)C', 'inhibition', 56.2),
  ('CSCCc1nn[nH]n1', 'inhibition', 16.2),
  ('CSCC[C@H](N)C(=O)NCO', 'inhibition', 23.1);

[P] CSCC[C@H](N)C(=O)Nc1ccc([N+](=O)[O-])cc1
[Q] CSCC[C@H](N)C(=O)Nc1cccc([N+](=O)[O-])c1
[R] COC(=O)[C@@H](N)CCSC
Put the compounds in ascending order of inhibition. Output the labels ranked as instructed.
Q, R, P

###

# experimental.system: Methionine--tRNA ligase (Escherichia coli K-12)
# assay.notes: Ability to inhibit Escherichia coli methionyl-tRNA synthetase was determined at a concentration of 270 uM
measured.parameter: inhibition (%)

Recorded results for 5 molecules are shown here.
INSERT INTO measurements (compound_smiles, numeric_result) VALUES
  ('CCOC(=O)c1c[nH]nc1CCSC', 0),
  ('CSCCC(=O)O', 5.9),
  ('CSCC[C@H](NC(=O)OC(C)(C)C)C(=O)O', 11.3),
  ('CSCCCCO', 0),
  ('CSCCC#N', 7.8);

[1] CSCCc1n[nH]cc1C(=O)O
[2] CSCC[C@H](NC(=O)OC(C)(C)C)C(=O)NOC(=O)OC(C)(C)C
[3] CSCCc1cc(O)[nH]n1
Put the molecules in ascending order of inhibition. Output the labels ranked as instructed.
2, 3, 1
(2: 0%, 3: 1.8%, 1: 8.3%)

###

# experimental.system: Methionine--tRNA ligase (Escherichia coli K-12)
# assay.notes: Ability to inhibit Escherichia coli methionyl-tRNA synthetase was determined at a concentration of 270 uM
measured.parameter: inhibition (%)

Recorded results for 7 compounds are shown here.
INSERT INTO assay_data (compound_smiles, units_text, numeric_result) VALUES
  ('CSCCO', '%', 3.2),
  ('COC(=O)CCSC', '%', 3.8),
  ('CS(=O)(=O)CC[C@H](N)C(=O)NO', '%', 0),
  ('CSCCC=O', '%', 4.7),
  ('CSCCC(=O)Cl', '%', 14),
  ('CSCC[C@H](N)C(N)=O', '%', 17.8),
  ('CSCC[C@H](NC(=O)OC(C)(C)C)C(=O)NO', '%', 11.4);

[I] CSCC[C@H](N)C(=O)NO.O=C(O)C(F)(F)F
[II] CSCCCO
Please let me know which one, I or II , has a lower measured inhibition value. The response must carry the label of the picked entry.
II
(II: 0%, I: 81.5%)
